Notes on pKi obtained with MC4 receptor (MC4R) (Homo sapiens, UniProt P32245).
Sequence (P32245 whole entry): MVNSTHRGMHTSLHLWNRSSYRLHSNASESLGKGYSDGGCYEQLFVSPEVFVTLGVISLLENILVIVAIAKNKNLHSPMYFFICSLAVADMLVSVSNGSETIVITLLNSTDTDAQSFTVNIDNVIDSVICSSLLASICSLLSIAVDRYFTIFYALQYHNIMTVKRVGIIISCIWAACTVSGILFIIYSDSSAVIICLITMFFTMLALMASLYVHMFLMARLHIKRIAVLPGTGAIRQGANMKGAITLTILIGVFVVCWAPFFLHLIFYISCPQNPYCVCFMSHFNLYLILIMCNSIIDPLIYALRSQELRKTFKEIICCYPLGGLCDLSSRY
pKi: −log10 of the molar value.
ASSAY_READOUT: pKi

COMPOUND | pKi
COc1ccc([C@@H]2CN(c3ccc(=O)[nH]n3)C[C@H]2C(=O)N2CCCC(c3ccc(Cl)cc3)N(S(C)(=O)=O)CC2)c(F)c1 (mixture of isomers) [Example 111] | 7.16

1 = COc1ccc([C@@H]2CN(c3ccc(C#N)nn3)C[C@H]2C(=O)N2CCCC(c3ccc(Cl)cc3)N(S(C)(=O)=O)CC2)c(F)c1 (mixture of isomers) [Example 105]
2 = COC(=O)N1CCN(C(=O)[C@@H]2CN(c3ccc(=O)n(C)n3)C[C@H]2c2ccc(OC)cc2F)CCCC1c1ccc(Cl)cc1 (mixture of isomers) [Example 116]
Quick check, higher pKi between 1 and 2 ? Indicate which entry you chose by stating its label.
2

---

target: CYP3A4 (Homo sapiens); construct: utilizes human liver microsomes together with isoform-specific clinical drug probes; from tissue; host or cells: human liver microsomes; test: High density DDI 3 μM cocktail screen in human liver microsomes, midazolam probe; format: in vitro ADME; conditions: human, liver microsomes, probe midazolam, read-out: % inhibition 3A4 @ 3 μM
Sequence (P08684 whole entry, canonical isoform): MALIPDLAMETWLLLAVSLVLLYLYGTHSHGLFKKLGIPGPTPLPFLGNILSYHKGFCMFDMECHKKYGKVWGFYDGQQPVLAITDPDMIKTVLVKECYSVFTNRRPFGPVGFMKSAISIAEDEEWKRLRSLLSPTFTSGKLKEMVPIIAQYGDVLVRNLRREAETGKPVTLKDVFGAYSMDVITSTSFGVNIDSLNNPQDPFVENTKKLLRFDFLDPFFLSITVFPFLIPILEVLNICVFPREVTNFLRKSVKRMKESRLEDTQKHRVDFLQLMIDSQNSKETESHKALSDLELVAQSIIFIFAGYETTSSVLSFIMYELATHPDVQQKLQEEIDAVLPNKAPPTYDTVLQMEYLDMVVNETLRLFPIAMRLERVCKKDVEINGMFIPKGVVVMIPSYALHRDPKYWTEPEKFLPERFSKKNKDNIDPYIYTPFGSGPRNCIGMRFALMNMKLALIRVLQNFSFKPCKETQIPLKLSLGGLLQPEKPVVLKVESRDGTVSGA
ASSAY_READOUT: inhibition at 3 µM (%)

Worked examples, 4 compounds total:
COMPOUND | inhibition at 3 µM / %
CC(C)C(=O)N1CCN(C(=O)[C@@H]2CN(c3ccc(=O)n(C)n3)C[C@H]2c2ccc(Cl)cn2)CCC[C@H]1c1ccc(Cl)cc1 [Example 37] | 42.3
COC(=O)N1CCN(C(=O)[C@@H]2CN(c3ccc(=O)[nH]n3)C[C@H]2c2ccc(OC)cc2F)CCC[C@@H]1c1ccc(Cl)cc1 [Example 90] | 53.8
COC(=O)N1CCN(C(=O)[C@@H]2CN(c3cccnn3)C[C@H]2c2ccc(F)cc2F)CCCC1c1ccccc1 (mixture of isomers) [Example 100] | 65.5
COc1ccc([C@@H]2CN(c3ccc(Cl)nn3)C[C@H]2C(=O)N2CCCC(c3ccc(Cl)cc3)N(S(C)(=O)=O)CC2)c(F)c1 (stereo partly drawn) [Example 108] | 63.5

a = CC(=O)N1CCN(C(=O)[C@@H]2CN(c3cccnn3)C[C@H]2c2ccc(F)cc2F)CCCC1c1ccccc1 (mixture of isomers) [Example 103]
b = CC(=O)N1CCN(C(=O)[C@@H]2CN(C(C)(C)C)C[C@H]2c2ccc(F)cc2F)CCC[C@H]1c1ccc(Cl)cc1 [Example 8]
Quick check, higher inhibition at 3 µM between a and b ? Indicate which entry you chose by stating its label.
a

---

molecular target: MC4 receptor (Homo sapiens, UniProt P32245); experiment: MC4 EC50 functional potency (protocol E of US2005/0176772 / WO 2005/077935)
Sequence (P32245 whole entry): as the sequence (P32245 whole entry) above
ASSAY_READOUT: EC50 (nM)

Worked examples, 3 molecules total:
MOLECULE | ASSAY_READOUT | EXPERIMENTAL_RESULT
Cn1nc(N2C[C@@H](C(=O)N3CCCC(c4ccc(Cl)cc4)N(S(C)(=O)=O)CC3)[C@H](c3ccc(F)cc3F)C2)ccc1=O (mixture of isomers) | EC50 | 20
COc1ccc([C@@H]2CN(C(C)(C)C)C[C@H]2C(=O)N2CCCC(c3ccc(Cl)cc3)N(S(C)(=O)=O)CC2)c(F)c1 (mixture of isomers) | EC50 | 274
CCCC(=O)N1CCN(C(=O)[C@@H]2CN(c3cccnn3)C[C@H]2c2ccc(F)cc2F)CCCC1c1ccccc1 (mixture of isomers) | EC50 | 7.12

a = CC(=O)N1CCN(C(=O)[C@@H]2CN(c3ccc4nncn4n3)C[C@H]2c2ccc(Cl)cn2)CCC[C@@H]1c1ccc(Cl)cc1
b = COc1ccc([C@@H]2CN(c3ccc(=O)n(C)n3)C[C@H]2C(=O)N2CCC[C@@H](c3ccc(Cl)cc3)N(C(=O)C(C)C)CC2)c(F)c1
c = CS(=O)(=O)N1CCN(C(=O)[C@@H]2CN(c3ccc(C#N)nn3)C[C@H]2c2ccc(F)cc2F)CCCC1c1ccc(F)cc1 (mixture of isomers)
Hello, I need these entries ordered by EC50, highest reading first. Thanks! Respond with an ordered listing of the labels, as requested.
c, a, b

---

Notes on Ki obtained with MC3 receptor (MC3R) (Homo sapiens).
Sequence (P41968 whole entry): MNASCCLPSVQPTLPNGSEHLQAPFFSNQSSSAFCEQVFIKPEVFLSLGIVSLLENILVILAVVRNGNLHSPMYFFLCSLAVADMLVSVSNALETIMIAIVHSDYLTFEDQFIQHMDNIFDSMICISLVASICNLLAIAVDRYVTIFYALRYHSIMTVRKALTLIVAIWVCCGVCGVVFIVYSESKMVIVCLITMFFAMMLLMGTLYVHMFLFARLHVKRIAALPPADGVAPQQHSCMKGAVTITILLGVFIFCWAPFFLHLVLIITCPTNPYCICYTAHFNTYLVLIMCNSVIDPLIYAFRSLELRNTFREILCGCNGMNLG
ASSAY_READOUT: Ki (µM)

COMPOUND | EXPERIMENTAL_RESULT
CCC(=O)N1CCN(C(=O)[C@@H]2CN(C(C)(C)C)C[C@H]2c2ccc(F)cc2F)CCC[C@H]1c1ccc(Cl)cc1 | 6.59
CS(=O)(=O)N1CCN(C(=O)[C@@H]2CN(c3ccc(C#N)nn3)C[C@H]2c2ccc(F)cc2F)CCCC1c1ccc(Cl)cc1 (mixture of isomers) | 0.96
COC(=O)N1CCN(C(=O)[C@@H]2CN(C3CCOCC3)C[C@H]2c2ccc(F)cc2F)CCCC1c1ccccc1 (mixture of isomers) | 19.6
COC(=O)N1CCN(C(=O)[C@@H]2CN(c3ccc(=O)n(C)n3)C[C@H]2c2ccc(OC)cc2F)CCC[C@@H]1c1ccc(Cl)cc1 | 0.9
COc1ccc([C@@H]2CN(c3ccc(=O)[nH]n3)C[C@H]2C(=O)N2CCCC(c3ccc(Cl)cc3)N(S(C)(=O)=O)CC2)c(F)c1 (mixture of isomers) [Example 111] | 0.942

a = COc1ccc(C2CCCN(C(=O)[C@@H]3CN(c4ccc(C#N)nn4)C[C@H]3c3ccc(F)cc3F)CCN2C(C)=O)cc1 (mixture of isomers)
b = COc1ccc([C@@H]2CN(c3cccnn3)C[C@H]2C(=O)N2CCC(c3ccc(Cl)cc3)N(S(C)(=O)=O)CC2)c(F)c1 (mixture of isomers)
Quick check, higher Ki between a and b ? Indicate which entry you chose by stating its label.
b
(b: 6.69 µM, a: 2.98 µM)

a = CC(C)(C)N1C[C@@H](C(=O)N2CCC[C@@H](c3ccc(Cl)cc3)N(C(=O)C3CCC3)CC2)[C@H](c2ccc(F)cc2F)C1
b = COC(=O)N1CCN(C(=O)[C@@H]2CN(c3ccc(=O)n(C)n3)C[C@H]2c2ccc(F)cc2F)CCC[C@H]1c1ccc(Cl)cc1
Quick check, higher Ki between a and b ? Indicate which entry you chose by stating its label.
a
(a: 4.06 µM, b: 0.187 µM)

---

assay: In vitro metabolism rate determination, human liver microsome (HLM) assay; assay type: in vitro ADME; details: human, liver microsomes, read-out: HLM: Clint, app
ASSAY_READOUT: microsomal CLint at 1 μM (µL/min/mg)

Worked examples, 6 molecules total:
MOLECULE | READOUT_UNITS | EXPERIMENTAL_RESULT
COc1ccc([C@@H]2CN(C(C)(C)C)C[C@H]2C(=O)N2CCC[C@@H](c3ccc(Cl)cc3)N(C(C)=O)CC2)c(F)c1 | µL/min/mg | 28.3
COc1ccc([C@@H]2CN(c3ccc(=O)n(C)n3)C[C@H]2C(=O)N2CCC[C@@H](c3ccc(Cl)cc3)N(C(=O)CC(F)(F)F)CC2)c(F)c1 | µL/min/mg | 18.2
COc1ccc([C@@H]2CN(c3ccc(=O)n(C)n3)C[C@H]2C(=O)N2CCCC(c3ccc(Cl)cc3)N(S(C)(=O)=O)CC2)c(F)c1 (single isomer, unassigned) [Example 117] | µL/min/mg | 35.1
CC(C)CC(=O)N1CCN(C(=O)[C@@H]2CN(C(C)(C)C)C[C@H]2c2ccc(F)cc2F)CCC[C@H]1c1ccc(Cl)cc1 | µL/min/mg | 92.6
CCCC(=O)N1CCN(C(=O)[C@@H]2CN(C(C)(C)C)C[C@H]2c2ccc(F)cc2F)CCCC1c1ccccc1 (mixture of isomers) | µL/min/mg | 69.2
CCN(CC)C(=O)N1CCN(C(=O)[C@@H]2CN(C(C)(C)C)C[C@H]2c2ccc(F)cc2F)CCC[C@H]1c1ccc(Cl)cc1 | µL/min/mg | 173

1 = CS(=O)(=O)N1CCN(C(=O)[C@@H]2CN(c3ccc(C#N)nn3)C[C@H]2c2ccc(F)cc2F)CCCC1c1ccc(F)cc1 (mixture of isomers)
2 = Cn1nc(N2C[C@@H](C(=O)N3CCCC(c4ccc(Cl)cc4)N(S(C)(=O)=O)CC3)[C@H](c3ccc(F)cc3F)C2)ccc1=O (mixture of isomers)
3 = COC(=O)N1CCN(C(=O)[C@@H]2CN(c3ccc(C#N)nn3)C[C@H]2c2ccc(F)cc2F)CCCC1c1cccc(OC)c1 (mixture of isomers)
Hello, I need these entries ordered by microsomal CLint at 1 μM, highest reading first. Thanks! Respond with an ordered listing of the labels, as requested.
3, 1, 2

a = COC(=O)N1CCN(C(=O)[C@@H]2CN(C(C)(C)C)C[C@H]2c2ccc(F)cc2F)CCCC1c1ccc(Cl)cc1 (mixture of isomers)
b = COC(=O)N1CCN(C(=O)[C@@H]2CN(c3ccc(C#N)nn3)C[C@H]2c2ccc(Cl)cn2)CCC[C@H]1c1ccc(Cl)cc1
c = COc1ccc([C@@H]2CN(c3cccnn3)C[C@H]2C(=O)N2CCC(c3ccc(Cl)cc3)N(S(C)(=O)=O)CC2)c(F)c1 (mixture of isomers)
Hello, I need these entries ordered by microsomal CLint at 1 μM, highest reading first. Thanks! Respond with an ordered listing of the labels, as requested.
c, a, b
(c: 78.1 µL/min/mg, a: 23 µL/min/mg, b: 13.9 µL/min/mg)
